// IC50 lookup, one value per entry
# System: PEA2
# test protocol: MTT cytotoxicity assay, PEA2
# Type: cell-based
# assay setup: PEA2, ovarian, 72 hr, read-out: IC50, cell killing
Could you give me the number in nM? Just the number is fine.

Given Cl.Cl.N#Cc1ccc(/C=C2/C(=O)/C(=C/c3ccc(C#N)cc3)C23CCN(C(=N)N)CC3)cc1 [RA475] , respond with its IC50.
356

---
Given N#Cc1ccc(/C=C2/C(=O)/C(=C/c3ccc(C#N)cc3)C23CCN(C(=N)N)C3)cc1 [RA477] , respond with its IC50.
312
